Data provenance is ChEMBL document CHEMBL1155291.

Species on record: Rattus norvegicus
Assay name: Selectivity ratio of Ki of Wistar rat dopamine D1-like receptor to Ki for Wistar rat dopamine D2-like receptor
Quantity kind: Ratio Ki
Enter a number only.

Solved entries (count: 4):
| Molecule | Reported measurement |
| --- | --- |
| CN1CCc2cc(Cl)c(O)cc2C1Cc1ccc(Cl)cc1Cl (stereo not drawn) | 0.9 |
| COc1cc2c(cc1Cl)CCN(C)C2Cc1ccc(Cl)cc1Cl (stereo not drawn) | 2.5 |
| Oc1cc2c(cc1Cl)CCNC2Cc1ccc(Cl)cc1Cl (stereo not drawn) | 1.7 |
| COc1cc2c(cc1Cl)CCNC2Cc1ccc(Cl)cc1Cl (stereo not drawn) | 3.4 |

Prompt: Fill in the blank: the reported Ratio Ki of COc1cc2c(cc1Cl)CCN(C)C2Cc1ccccc1Br (stereo not drawn) is ____.
Response: 1

Prompt: Fill in the blank: the reported Ratio Ki of Oc1cc2c(cc1Cl)CCNC2Cc1ccccc1Br (stereo not drawn) is ____.
Response: 2.4

Prompt: Fill in the blank: the reported Ratio Ki of CN1CCc2cc(Cl)c(O)cc2C1Cc1ccccc1Br (stereo not drawn) is ____.
Response: 3.6

Prompt: Fill in the blank: the reported Ratio Ki of COc1cc2c(cc1Cl)CCNC2Cc1ccccc1Br (stereo not drawn) is ____.
Response: 6.2

====

Assay name: Displacement of [3H]raclopride from dopamine D2-like receptor in Wistar rat striatal membrane after 1 hr by scintillation counting
Type: cell membranes, Striatum
Entries and their pKi
Enter a number only.

Solved entries (count: 6):
| Molecule | Reported measurement |
| --- | --- |
| CN1CCc2cc(Cl)c(O)cc2C1Cc1ccc(Cl)cc1Cl (stereo not drawn) | 6.64 |
| COc1cc2c(cc1Cl)CCN(C)C2Cc1ccccc1Br (stereo not drawn) | 5.9 |
| Oc1cc2c(cc1Cl)CCNC2Cc1ccccc1Br (stereo not drawn) | 7.39 |
| COc1cc2c(cc1Cl)CCN(C)C2Cc1ccc(Cl)cc1Cl (stereo not drawn) | 5.23 |
| CN1CCc2cc(Cl)c(O)cc2C1Cc1ccccc1Br (stereo not drawn) | 7.76 |
| COc1cc2c(cc1Cl)CCNC2Cc1ccc(Cl)cc1Cl (stereo not drawn) | 5.51 |

Prompt: Fill in the blank: the reported pKi of Oc1cc2c(cc1Cl)CCNC2Cc1ccc(Cl)cc1Cl (stereo not drawn) is ____.
Response: 7

Prompt: Fill in the blank: the reported pKi of COc1cc2c(cc1Cl)CCNC2Cc1ccccc1Br (stereo not drawn) is ____.
Response: 6.63

====

Assay name: Displacement of [3H]SCH23390 from dopamine D1-like receptor in Wistar rat striatal membrane after 1 hr by scintillation counting
Type: cell membranes, Striatum
Quantity kind: pKi
In textbook form, pKi equals minus log to base ten of the concentration in mol/L.

Solved entries (count: 7):
| Molecule | Reported measurement |
| --- | --- |
| Oc1cc2c(cc1Cl)CCNC2Cc1ccccc1Br (stereo not drawn) | 6.96 |
| CN1CCc2cc(Cl)c(O)cc2C1Cc1ccc(Cl)cc1Cl (stereo not drawn) | 6.62 |
| Oc1cc2c(cc1Cl)CCNC2Cc1ccc(Cl)cc1Cl (stereo not drawn) | 6.74 |
| COc1cc2c(cc1Cl)CCN(C)C2Cc1ccc(Cl)cc1Cl (stereo not drawn) | 4.82 |
| COc1cc2c(cc1Cl)CCN(C)C2Cc1ccccc1Br (stereo not drawn) | 5.88 |
| CN1CCc2cc(Cl)c(O)cc2C1Cc1ccccc1Br (stereo not drawn) | 7.19 |
| COc1cc2c(cc1Cl)CCNC2Cc1ccccc1Br (stereo not drawn) | 5.82 |

Prompt: Fill in the blank: the reported pKi of COc1cc2c(cc1Cl)CCNC2Cc1ccc(Cl)cc1Cl (stereo not drawn) is ____.
Response: 4.95

====

Assay name: Displacement of [3H]raclopride from dopamine D2-like receptor in Wistar rat striatal membrane after 1 hr by scintillation counting
Format: cell membranes, Striatum
pKi: −log10 of the molar value.
Label y for high-side pKi (at or above 7) and n for low-side pKi (below it).

# example entries with known answers
| Compound | Class assignment |
| --- | --- |
| Oc1cc2c(cc1Cl)CCNC2Cc1ccccc1Br (stereo not drawn) | y |
| CN1CCc2cc(Cl)c(O)cc2C1Cc1ccccc1Br (stereo not drawn) | y |
| COc1cc2c(cc1Cl)CCNC2Cc1ccccc1Br (stereo not drawn) | n |

Now look at this one.
Prompt: Exam item: decide whether the reported pKi for CN1CCc2cc(Cl)c(O)cc2C1Cc1ccc(Cl)cc1Cl (stereo not drawn) is at least 7.
Response: n

====

Assay name: Displacement of [3H]SCH23390 from dopamine D1-like receptor in Wistar rat striatal membrane after 1 hr by scintillation counting
Assay type: cell membranes, Striatum
Quantity kind: pKi
Enter a number only.

| Molecule | pKi |
| --- | --- |
| COc1cc2c(cc1Cl)CCN(C)C2Cc1ccc(Cl)cc1Cl (stereo not drawn) | 4.84 |

Prompt: Fill in the blank: the reported pKi of Oc1cc2c(cc1Cl)CCNC2Cc1ccc(Cl)cc1Cl (stereo not drawn) is ____.
Response: 6.74

Prompt: Fill in the blank: the reported pKi of CN1CCc2cc(Cl)c(O)cc2C1Cc1ccc(Cl)cc1Cl (stereo not drawn) is ____.
Response: 6.71

Prompt: Fill in the blank: the reported pKi of Oc1cc2c(cc1Cl)CCNC2Cc1ccccc1Br (stereo not drawn) is ____.
Response: 7.06

Prompt: Fill in the blank: the reported pKi of COc1cc2c(cc1Cl)CCNC2Cc1ccccc1Br (stereo not drawn) is ____.
Response: 5.83

====

Assay name: Displacement of [3H]raclopride from dopamine D2-like receptor in Wistar rat striatal membrane after 1 hr by scintillation counting
Assay type: cell membranes, Striatum
Quantity kind: pKi
In textbook form, pKi equals minus log to base ten of the concentration in mol/L.

Solved entries (count: 3):
| Molecule | pKi |
| --- | --- |
| Oc1cc2c(cc1Cl)CCNC2Cc1ccc(Cl)cc1Cl (centres undefined) | 6.97 |
| COc1cc2c(cc1Cl)CCN(C)C2Cc1ccccc1Br (centres undefined) | 5.87 |
| COc1cc2c(cc1Cl)CCN(C)C2Cc1ccc(Cl)cc1Cl (centres undefined) | 5.21 |

Prompt: Fill in the blank: the reported pKi of COc1cc2c(cc1Cl)CCNC2Cc1ccc(Cl)cc1Cl (centres undefined) is ____.
Response: 5.48

====

Assay name: Displacement of [3H]SCH23390 from dopamine D1-like receptor in Wistar rat striatal membrane after 1 hr by scintillation counting
Type: cell membranes, Striatum
Quantity kind: pKi

Prompt: Fill in the blank: the reported pKi of COc1cc2c(cc1Cl)CCN(C)C2Cc1ccccc1Br (stereo not drawn) is ____.
Response: 5.89

Prompt: Fill in the blank: the reported pKi of COc1cc2c(cc1Cl)CCNC2Cc1ccc(Cl)cc1Cl (stereo not drawn) is ____.
Response: 5.01

Prompt: Fill in the blank: the reported pKi of CN1CCc2cc(Cl)c(O)cc2C1Cc1ccccc1Br (stereo not drawn) is ____.
Response: 7.21
